Target or test system: Protein kinase C alpha type (Homo sapiens) (UniProt P17252)
Experiment summary: Inhibition of N-terminal GST-fused PKCalpha (1-672) expressed in baculovirus expression system at 30 uM after 1 hr by off-chip mobility shift assay relative to control
Experimental endpoint: inhibition (%)

mol_smiles=CCCCCCCCCCCCCC[C@@H]1OC[C@H](N)[C@@H]1O target_or_test_system="Protein kinase C alpha type (Homo sapiens) (UniProt P17252)" reading=32.7
mol_smiles=CCCCCCCCCCCCC/C=C/[C@@H](O)[C@H](CO)N(C)C target_or_test_system="Protein kinase C alpha type (Homo sapiens) (UniProt P17252)" reading=35
mol_smiles=CCCCCCCCCCCCCC[C@H]1OC[C@@H](N)[C@@H]1O target_or_test_system="Protein kinase C alpha type (Homo sapiens) (UniProt P17252)" reading=34
mol_smiles=CCCCCCCCCCCCCC[C@@H]1OC[C@@H](N)[C@@H]1O target_or_test_system="Protein kinase C alpha type (Homo sapiens) (UniProt P17252)" reading=33.1
